- TARGET OF ASSAY: recombinant form of Glutaminase 1 (GAC) (Homo sapiens, UniProt O94925)
- Sequence (O94925 137-598 isoform O94925-3 limits assumed): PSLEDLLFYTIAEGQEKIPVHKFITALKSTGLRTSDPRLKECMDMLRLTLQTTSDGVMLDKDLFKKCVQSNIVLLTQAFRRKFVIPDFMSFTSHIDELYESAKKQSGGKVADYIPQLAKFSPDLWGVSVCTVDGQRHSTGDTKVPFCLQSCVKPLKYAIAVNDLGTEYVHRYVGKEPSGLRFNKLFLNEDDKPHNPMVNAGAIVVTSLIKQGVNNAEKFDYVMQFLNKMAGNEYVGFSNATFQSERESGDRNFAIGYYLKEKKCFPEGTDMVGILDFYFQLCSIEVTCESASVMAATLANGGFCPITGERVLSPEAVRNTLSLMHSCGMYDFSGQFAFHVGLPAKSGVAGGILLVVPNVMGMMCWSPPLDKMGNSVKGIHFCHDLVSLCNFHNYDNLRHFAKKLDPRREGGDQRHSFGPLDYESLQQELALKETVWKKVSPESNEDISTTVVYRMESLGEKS
- ASSAY PROTOCOL: Recombinant Enzyme Assay - Time Dependence (60 min preincubation)
- Assay type: biochemical
- ASSAY CONTEXT: read-out: GAC Delta N2 IC50 60 min preinc
- Description: The enzyme/compound mix was sealed with sealing foil (USA Scientific) and allowed to incubate, with mild agitation, for 60 minutes at 20° C. Enzymatic reaction was started with the addition of 50 μL of substrate solution (50 mM Tris-HCl pH 8.0, 0.2 mM EDTA, 150 mM K2HPO4, 0.1 mg/ml BSA, 1 mM DTT, 20 mM L-glutamine, 2 mM NAD^+, and 10 ppm antifoam) and read in a Molecular Devices M5 plate reader at 20° C. The plate reader was configured to read absorbance (=340 nm) in kinetic mode for 15 minutes. […]
Range-based classes on measured IC50: lower level: < 5 nM; middle level: ≥ 5 nM and < 20 nM; upper level: ≥ 20 nM

O=C(Cc1ccccc1)Nc1ccc(CCCCc2nnc(NC(=O)Cc3cc(F)cc(C(F)(F)F)c3)s2)nn1 ... middle level
Cc1ccccc1CC(=O)Nc1nnc(CCCCc2ccc(NC(=O)Cc3ccccc3)nn2)s1 ... upper level
CC(C)CN(C)C(=O)Cc1cccc(CC(=O)Nc2nnc(CCCCc3ccc(NC(=O)Cc4ccccc4)nn3)s2)c1 ... lower level
CC(N)c1cc(CC(=O)Nc2ccc(CCCCc3nnc(NC(=O)Cc4ccccc4)s3)nn2)ccc1F (stereo not drawn) ... middle level
CC(C)(C)OC(=O)NCc1cccc(CC(=O)Nc2nnc(CCCCc3ccc(NC(=O)C(C)(CO)CO)nn3)s2)c1 ... upper level

Exercise: Hello team, could you let me know which band the following compound falls into: "O=C(O)Cc1cccc(CC(=O)Nc2nnc(CCCCc3ccc(NC(=O)Cc4ccccc4)nn3)s2)c1"
Solution: middle level

Exercise: Returns: class label. Input: "CC(=O)Nc1ccc(CCCCc2nnc(NC(=O)Cc3cccc(CNC(=O)OC(C)(C)C)c3)s2)nn1"
Solution: middle level

Exercise: State the class of the compound shown: "CC(C)(C)C(=O)NCc1cccc(CC(=O)Nc2nnc(CCCCc3ccc(NC(=O)Cc4ccccc4)nn3)s2)c1"
Solution: lower level

Exercise: Band for the recorded IC50 of "CC(=O)Nc1cccc(CC(=O)Nc2nnc(CCCCc3ccc(NC(=O)Cc4ccccc4)nn3)s2)c1" ?
Solution: lower level

Exercise: Each compound maps to one class by IC50. Which class for "COc1cc(CC(=O)Nc2nnc(CCCCc3ccc(NC(=O)Cc4ccccc4)nn3)s2)cc(OC)c1" ?
Solution: lower level

Exercise: Bin? "O=C(Cc1cccs1)Nc1ccc(CCCCc2nnc(NC(=O)Cc3ccccc3)s2)nn1"
Solution: middle level

Exercise: Given "CC(C)(C)OC(=O)N1Cc2cccc(CC(=O)Nc3ccc(CCCCc4nnc(NC(=O)Cc5cccc(OC(F)(F)F)c5)s4)nn3)c2C1" , name the class its IC50 places it in.
Solution: upper level

Exercise: Any idea which band NCc1cccc(CC(=O)Nc2nnc(CCCCc3ccc(NC(=O)C(O)c4cccc(Cl)c4)nn3)s2)c1 (stereo not drawn) is in?
Solution: upper level

----------
- TARGET OF ASSAY: recombinant form of Glutaminase 1 (GAC) (Homo sapiens)
- ASSAY PROTOCOL: Recombinant Enzyme Assay - Time Dependence (60 min preincubation)
- Type: biochemical
- ASSAY CONTEXT: read-out: GAC Delta N2 IC50 60 min preinc
MEASURED ENDPOINT: IC50
Give the value; after it, write the unit.

CN(C)Cc1cccc(CC(=O)Nc2nnc(CCCCc3ccc(NC(=O)Cc4ccccc4)nn3)s2)c1 ... 16 nM
O=C(Cc1ccccc1)Nc1ccc(CCCCc2nnc(NC(=O)Cc3cccc(OC(CO)CO)c3)s2)nn1 ... 8 nM

Below is a list of compounds. For each, state its recorded IC50.
1. O=C(Cc1cccc(Cl)c1)Nc1ccc(CCCCc2nnc(NC(=O)Cc3cccc(OC(F)(F)F)c3)s2)nn1
2. CC(=O)NC(C)c1cccc(CC(=O)Nc2ccc(CCCCc3nnc(NC(=O)Cc4ccccc4)s3)nn2)c1 (stereo not shown)

Solution:
8 nM
7 nM

----------
- TARGET OF ASSAY: recombinant form of Glutaminase 1 (GAC) (Homo sapiens, UniProt O94925)
- ASSAY PROTOCOL: Recombinant Enzyme Assay - Time Dependence (60 min preincubation)
- Type: biochemical
- ASSAY CONTEXT: read-out: GAC Delta N2 IC50 60 min preinc
For each of the compounds below, state its pIC50.
Numbers only, as −log10 of the molar value.

The examples below pair each entry with its known result.
O=C(Cc1ccc(OC(F)(F)F)cc1)Nc1ccc(CCCCc2nnc(NC(=O)Cc3ccccc3)s2)nn1 ... 8.05
CC(C)(C)OC(=O)Nc1ccc(CC(=O)Nc2nnc(CCCCc3ccc(NC(=O)Cc4ccccc4)nn3)s2)cc1 ... 7.82
CC(=O)N(C)Cc1cccc(CC(=O)Nc2nnc(CCCCc3ccc(NC(=O)Cc4ccccc4)nn3)s2)c1 ... 8.40
CCOc1cc(CC(=O)Nc2nnc(CCCCc3ccc(NC(=O)Cc4ccccc4)nn3)s2)ccc1O ... 8.30

# batch size: 3; output pIC50 per entry
1. CCOC(=O)NC(C)c1cccc(CC(=O)Nc2ccc(CCCCc3nnc(NC(=O)C(C)c4ccccc4)s3)nn2)c1 (stereo not drawn)
2. CS(=O)(=O)NCc1cccc(CC(=O)Nc2nnc(CCCCc3ccc(NC(=O)Cc4ccccc4)nn3)s2)c1
3. CCNC(=O)Nc1nnc(CCCCc2ccc(NC(=O)Cc3ccccc3)nn2)s1

Solution:
1: 8.22; 2: 8.40; 3: 6.85

----------
- TARGET OF ASSAY: recombinant form of Glutaminase 1 (GAC) (Homo sapiens)
- ASSAY PROTOCOL: Recombinant Enzyme Assay - Time Dependence (60 min preincubation)
- Assay type: biochemical
- ASSAY CONTEXT: read-out: GAC Delta N2 IC50 60 min preinc
- Method: The enzyme/compound mix was sealed with sealing foil (USA Scientific) and allowed to incubate, with mild agitation, for 60 minutes at 20° C. Enzymatic reaction was started with the addition of 50 μL of substrate solution (50 mM Tris-HCl pH 8.0, 0.2 mM EDTA, 150 mM K2HPO4, 0.1 mg/ml BSA, 1 mM DTT, 20 mM L-glutamine, 2 mM NAD^+, and 10 ppm antifoam) and read in a Molecular Devices M5 plate reader at 20° C. The plate reader was configured to read absorbance (=340 nm) in kinetic mode for 15 minutes. […]
MEASURED ENDPOINT: IC50
Record the result as number plus unit.

Example entries and their recorded answers appear below.
O=C(Cc1ccccc1)Nc1ccc(CCCCc2nnc(NC(=O)Cc3ccccc3Cl)s2)nn1 ... 23 nM
O=C(Cc1ccccc1)Nc1ccc(CCCCc2nnc(NC(=O)Cc3ccc(F)c(Cl)c3)s2)nn1 ... 6 nM

API: the following record is the query input.
Exercise: # query: IC50 of entry "O=C(Cc1ccccc1)Nc1ccc(CCCCc2nnc(NC(=O)Cc3cccc(C(F)(F)F)c3)s2)nn1"
Solution: 5 nM

----------
- TARGET OF ASSAY: recombinant form of Glutaminase 1 (GAC) (Homo sapiens, UniProt O94925)
- ASSAY PROTOCOL: Recombinant Enzyme Assay - Time Dependence (60 min preincubation)
- Format: biochemical
- ASSAY CONTEXT: read-out: GAC Delta N2 IC50 60 min preinc
- Experimental: The enzyme/compound mix was sealed with sealing foil (USA Scientific) and allowed to incubate, with mild agitation, for 60 minutes at 20° C. Enzymatic reaction was started with the addition of 50 μL of substrate solution (50 mM Tris-HCl pH 8.0, 0.2 mM EDTA, 150 mM K2HPO4, 0.1 mg/ml BSA, 1 mM DTT, 20 mM L-glutamine, 2 mM NAD^+, and 10 ppm antifoam) and read in a Molecular Devices M5 plate reader at 20° C. The plate reader was configured to read absorbance (=340 nm) in kinetic mode for 15 minutes. […]
Exercise: for every item that follows, state its recorded pIC50.
Answers are plain numbers, as −log10 of the molar value.

Could you report pIC50 for every entry in the following list?
1. Nc1ccc(CC(=O)Nc2nnc(CCCCc3ccc(NC(=O)Cc4ccccc4)nn3)s2)cc1
2. CCOC(=O)NC(C)c1cccc(CC(=O)Nc2nnc(CCCCc3ccc(NC(=O)Cc4ccccc4)nn3)s2)c1 (stereo not drawn)
3. CCNC(=O)OC(C)c1cccc(CC(=O)Nc2ccc(CCCCc3nnc(NC(=O)Cc4cccc(OC(F)(F)F)c4)s3)nn2)c1 (stereo not drawn)

Solution:
1: 8.05; 2: 8.52; 3: 7.82

Record pIC50 for all entries; do not skip any.
1. CCN(CC)C(=O)COc1cccc(CC(=O)Nc2ccc(CCCCc3nnc(NC(=O)Cc4ccccc4)s3)nn2)c1
2. COc1cccc(CNC(=O)Nc2nnc(CCCCc3nnc(NC(=O)Cc4ccccc4)s3)s2)c1
3. O=C(CC(O)C(F)(F)F)NCc1cccc(CC(=O)Nc2nnc(CCCCc3ccc(NC(=O)Cc4ccccc4)nn3)s2)c1 (stereo not drawn)
4. CSc1cccc(CC(=O)Nc2nnc(CCCCc3ccc(NC(=O)Cc4cccc(OC(F)(F)F)c4)nn3)s2)c1
5. O=C(Cc1ccccc1)Nc1ccc(CCCCc2nnc(NC(=O)Cc3cccc(CC(=O)N4CCC4)c3)s2)nn1
6. O=C(Cc1cccc(OC(F)(F)F)c1)Nc1ccc(CCCCc2nnc(NC(=O)Cc3cccc(OC(F)F)c3)s2)nn1

Solution:
1: 8.15; 2: 7.26; 3: 8.40; 4: 8.10; 5: 8.30; 6: 8.05

Quick request: pIC50 for each listed item, please.
1. CCNC(=O)NCc1cccc(CC(=O)Nc2nnc(CCCCc3ccc(NC(=O)Cc4ccccc4)nn3)s2)c1
2. O=C(Cc1cccc(OCCCO)c1)Nc1ccc(CCCCc2nnc(NC(=O)Cc3ccccc3)s2)nn1
3. CCCCN(C)C(=O)Cc1cccc(CC(=O)Nc2nnc(CCCCc3ccc(NC(=O)Cc4ccccc4)nn3)s2)c1
4. O=C(Cc1ccccc1)Nc1ccc(CCCCc2nnc(NC(=O)Cc3ccccc3)s2)nn1

Solution:
8.52
8.05
8.40
8.00
